Would you kindly list TRZAWK rating (Selectivity) for each of these compounds?
Test system: Triticum aestivum variety “Kanzler”
Assay: Pre-emergence test, selectivity
Format: in vivo
Conditions: 0.240 kg/ha, 3 weeks after treatment, rating 0-100 (100=death), Table 2
Just the number, please, no unit after it.

Ask: Tell me its TRZAWK rating (Selectivity) given Cc1cnc(-c2ccc(C(F)(F)F)cc2)nc1Oc1cccc(C(F)(F)F)c1 as the entry.
Reply: 40

Ask: Quick one: give measured TRZAWK rating (Selectivity) for FC(F)(F)c1ccc(-c2nccc(Oc3cccc(C(F)(F)F)c3)n2)cc1
Reply: 10

Ask: Name the recorded TRZAWK rating (Selectivity) of the item Cc1nc(-c2ccc(C(F)(F)F)cc2)nc(Oc2cccc(C(F)(F)F)c2)c1C in your answer.
Reply: 5

Ask: Indicate its recorded TRZAWK rating (Selectivity); the compound in question is CCc1cc(Oc2cccc(C(F)(F)F)c2)nc(-c2ccc(C(F)(F)F)cc2)n1
Reply: 40
